# SYSTEM NAME: T1, α7 nAChR (human, UniProt P36544 23-233)
# T1 construct: also called target protein α7 nAChR; α7 nicotinic acetylcholine receptor
# T1 sequence (P36544 23-233 limits assumed): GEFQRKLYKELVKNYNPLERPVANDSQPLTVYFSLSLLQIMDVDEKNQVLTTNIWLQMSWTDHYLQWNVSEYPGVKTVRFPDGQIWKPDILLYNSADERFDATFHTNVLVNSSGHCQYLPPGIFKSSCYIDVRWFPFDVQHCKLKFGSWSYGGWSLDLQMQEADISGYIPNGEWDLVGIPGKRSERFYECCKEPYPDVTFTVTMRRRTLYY
# ASSAY NOTES: BLI, α7 nAChR captured on NTA sensor, peptide in solution
pKd: −log10 of the molar value. Positions of bridges follow the written chain, without caps; N, C: chain ends. Non-standard residues stand in square brackets, D forms with d. No end group written: not given here.
Entry flag: MET if pKd reaches 6; NOT MET if it does not.

[[record]]
binder = "GSCS[dT]PPS[dC]VIYS (disulfide 3-9, Printed: GSCS-(D-Thr)-PPS-(D-Cys)-VIYS (3,9 disulfide bond)) [AJ003-27]"
assigned_class = "MET"

[[record]]
binder = "GSCS[dT]PPG[dC]VLYS (disulfide 3-9, Printed: GSCS-(D-Thr)-PPG-(D-Cys)-VLYS (3,9 disulfide bond)) [AJ003-24]"
assigned_class = "NOT MET"

[[record]]
binder = "GSCS[dT]PPS[dC]GLYS (disulfide 3-9, Printed: GSCS-(D-Thr)-PPS-(D-Cys)-GLYS (3,9 disulfide bond)) [AJ003-26]"
assigned_class = "NOT MET"


(Q) Does the binder GSCS[dT]PPS[dC]VLYS (disulfide 3-9, Printed: GSCS-(D-Thr)-PPS-(D-Cys)-VLYS (3,9 disulfide bond)) [AJ003-1] have recorded pKd that is 6 or more?
(A) MET

(Q) Decide: is the reported value of pKd for GSCS[dT]PPS[dC]VLWS (disulfide 3-9, Printed: GSCS-(D-Thr)-PPS-(D-Cys)-VLWS (3,9 disulfide bond)) [AJ003-30] equal to or greater than 6?
(A) MET

These entries and their values trace back to patent EP4725956A1.
